endpoint-name: melting point

Record excerpt, results attached:
CC(=O)N1CCN=C1c1ccc(NC(=O)C2=Cc3ccccc3OCC2)cc1
222 to 224 °C
COc1cc(CC(=O)O)ccc1OCc1nc(-c2ccco2)oc1C
162 to 164 °C
CN(C(=O)c1ccc2c(c1)nc(NC(=O)c1cccs1)n2CCCO)C1CCCCC1
105 to 107 °C
CC(=NO)C(C)(C)NOCCNC(C)(C)C(CCN1C(=O)c2ccccc2C1=O)=NO
74 to 75 °C
CC(=O)NC(C)Cn1cc(-c2ccccc2)c2ccccc2c1=O (stereo not given)
177 °C

Now look at this entry.
Task: Find the recorded melting point belonging to Cc1cc(-c2nc3c(C)ccnn3c2-c2ccnc(NC(=O)c3ccc(F)cc3)c2)ccc1F and report it.
Result: 243 to 244 °C

###

Below, each of the molecules is paired with its reported melting point value.

Cc1ccc(Sc2cncc3sc(C(=O)NN)cc23)cc1
176 to 178 °C
CCOC(=O)C1(C(C)C)OC2(O)C3CCCN3C(=O)C(Cc3ccccc3)N2C1=O (stereo not given)
152 to 154 °C
O=C(Nc1nncs1)c1ccc2ccccc2c1
197 to 199 °C
COC(=O)C#CC(=O)c1cccc(C)c1
36 to 38 °C
COc1ccc2c(c1)C=C(C=O)CO2
49 to 50 °C

Task: Find the recorded melting point belonging to Cc1ccc2c(c1)C=Cc1cc(C)ccc1C2c1cn(Cc2nc(C(=O)O)cs2)c(=O)[nH]c1=S and report it.
Result: 200 to 205 °C

Task: Find the recorded melting point belonging to CCCc1c(C(=O)C(C)C)c2ccc(CC(N)=O)cc2n1Cc1ccccc1Cl and report it.
Result: 146 to 148 °C

Task: Find the recorded melting point belonging to CCOC(=O)COc1c2c3c(ccnc3c3ccccc13)CCC2 and report it.
Result: 70 °C

Task: Find the recorded melting point belonging to CCCCCCCCCCc1csc2c1sc1c3scc(CCCCCCCCCC)c3sc21 and report it.
Result: 111 to 113 °C

Task: Find the recorded melting point belonging to CN1C(=O)CSC(c2cccc(Cl)c2)c2cc(C(O)(c3ccc(Cl)cc3)c3cncn3C)ccc21 (stereo not given) and report it.
Result: 186 °C

###

endpoint-name: melting point

Record excerpt, results attached:
O=C1C2=C(CCCC2)C(=O)C1=C1C=CNC=C1
258 to 261 °C
N#Cc1cnc2ccc(/C=C/CCN3CCOCC3)cc2c1Nc1ccc(Cl)cc1Cl
115 to 116 °C
C=C(NC(=O)OC(C)(C)C)C(=O)OCc1ccc([N+](=O)[O-])cc1
94 to 95 °C
CCOC(=O)c1cn(-c2nc(N)c(F)cc2F)c2c(Cl)c(NCC(O)COC3CNC3)c(F)cc2c1=O (centres undefined)
148 to 152 °C
CC(C)=CCN1CCc2c(sc(N)c2C(=O)c2ccccc2)C1
76 to 78 °C
CCCCCCCCCCCCCCCCCCNC(=O)NCCN
108 to 127 °C
Cc1c(CN2CCc3[nH]c4ccccc4c3C2=O)ncn1C(c1ccccc1)(c1ccccc1)c1ccccc1
235 to 236 °C
CC(C)CC(C=O)NC(=O)C(Cc1c[nH]cn1)NC(=O)C(CC=Cc1ccccc1)Cc1cccc2ccccc12 (centres undefined)
92 to 96 °C

Task: Find the recorded melting point belonging to CSC(c1ccc(Cl)cc1)C(C(O)C(C)(C)C)n1cncn1 (centres undefined) and report it.
Result: 58 to 60 °C
